meta.source: PubChem BioAssay AID1919017

System: SW1271 complex spheroids with HUVEC/MSC, growth, % test/control
Experiment: Anticancer human tumor SW1271 cell line growth inhibition [AhR];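 also: spheroids exposed to agents for 7 days before readout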
Conditions: second compound 10 µM; first compound 0.1 µM; active compounds read low
Rule: viability, T/C below 70% gives Y, anything at or above gives N.

Example results:
INSERT INTO results (compound, assigned_class) VALUES
  ('CC[C@@]1(O)C(=O)OCc2c1cc1n(c2=O)Cc2cc3c(CN(C)C)c(O)ccc3nc2-1 + CC(CO)NC(=O)c1cc(-c2ccc(Cl)cc2)nn(-c2cnn(C)c2)c1=O', 'Y'),
  ('COc1ccc([C@@H](O)c2cc(-c3ncnc4cc(N5CCOCC5)ccc34)c(F)cc2Cl)nn1 + Cc1ccccc1N=Nc1ccc(NC(=O)c2ccnn2C)c(C)c1', 'N'),
  ('Cn1ncnc1C1c2n[nH]c(=O)c3cc(F)cc(c23)NC1c1ccc(F)cc1 (stereo unspecified) + Cc1ccccc1N=Nc1ccc(NC(=O)c2ccnn2C)c(C)c1', 'N'),
  ('O=C(c1cc(Cc2n[nH]c(=O)c3ccccc23)ccc1F)N1CCN(C(=O)C2CC2)CC1 + CC(CO)NC(=O)c1cc(-c2ccc(Cl)cc2)nn(-c2cnn(C)c2)c1=O', 'Y'),
  ('NS(=O)(=O)OCC1CC(n2ccc3c(NC4CCc5ccccc54)ncnc32)CC1O (stereo unspecified) + Cc1cncc(-c2nc(NCCc3c[nH]c4ccccc34)c3ncn(C(C)C)c3n2)c1', 'N');

We next turn to a different compound, shown below.
Decide: viability, T/C of Nc1ccccc1NC(=O)c1ccc(CNC(=O)OCc2cccnc2)cc1 + CC(CO)NC(=O)c1cc(-c2ccc(Cl)cc2)nn(-c2cnn(C)c2)c1=O strictly below 70%?
Y
